These measurements were taken from patent US20240360165A1.

TARGET OR SYSTEM: CDK7/Cyclin H/MAT1 complex (Homo sapiens, UniProt P50613)
Sequence (P50613 whole entry, species assumed): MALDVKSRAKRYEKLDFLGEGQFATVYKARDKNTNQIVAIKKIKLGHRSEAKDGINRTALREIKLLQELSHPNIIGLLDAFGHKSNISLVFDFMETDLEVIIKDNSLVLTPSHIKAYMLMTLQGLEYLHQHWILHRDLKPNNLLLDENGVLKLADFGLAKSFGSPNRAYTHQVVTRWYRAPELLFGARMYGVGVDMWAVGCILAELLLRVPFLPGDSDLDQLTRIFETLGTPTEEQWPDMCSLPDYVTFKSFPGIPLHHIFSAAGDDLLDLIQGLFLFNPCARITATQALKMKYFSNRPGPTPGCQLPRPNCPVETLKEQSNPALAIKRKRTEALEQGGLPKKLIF
Sequence (P51946 whole entry partner, species assumed): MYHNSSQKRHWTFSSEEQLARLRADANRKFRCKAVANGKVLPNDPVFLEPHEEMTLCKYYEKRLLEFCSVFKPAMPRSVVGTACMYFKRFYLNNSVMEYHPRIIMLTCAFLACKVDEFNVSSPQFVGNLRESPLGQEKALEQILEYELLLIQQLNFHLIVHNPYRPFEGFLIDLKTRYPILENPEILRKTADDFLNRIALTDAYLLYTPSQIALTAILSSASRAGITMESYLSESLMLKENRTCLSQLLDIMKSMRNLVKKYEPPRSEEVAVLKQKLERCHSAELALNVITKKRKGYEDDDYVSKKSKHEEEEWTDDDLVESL
Sequence (P51948 whole entry partner, species assumed): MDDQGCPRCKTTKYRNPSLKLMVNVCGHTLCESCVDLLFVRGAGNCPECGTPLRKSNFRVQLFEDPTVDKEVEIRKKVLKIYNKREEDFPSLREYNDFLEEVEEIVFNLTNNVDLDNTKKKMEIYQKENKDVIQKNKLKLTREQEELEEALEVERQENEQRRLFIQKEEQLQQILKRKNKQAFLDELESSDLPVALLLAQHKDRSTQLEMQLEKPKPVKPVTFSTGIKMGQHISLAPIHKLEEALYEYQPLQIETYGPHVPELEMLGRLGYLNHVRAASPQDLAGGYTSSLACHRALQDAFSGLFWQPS
ASSAY: CDK7 inhibition assay (Caliper/LabChip EZ Reader kinase assay)
Type: biochemical
MEASUREMENT PARAMETERS: Table 1; CDK7/Cyclin H/MAT1 6 nM, ATP 2 mM, 35 min at 27° C.
PROPERTY MEASURED: IC50

INSERT INTO measurements (compound, property_measured, reported_result) VALUES
  ('OC1CC=C(c2cccc3c(-c4nc(N[C@H]5CCCNC5)ncc4C(F)(F)F)c[nH]c23)CC1 (stereo partly shown) [Compound 198]', 'IC50', '< 20 nM'),
  ('CNC(=O)[C@@H]1CNC[C@@H](Nc2ncc(C(F)(F)F)c(-c3c[nH]c4ccccc34)n2)C1 [Compound 256]', 'IC50', '20 to 200 nM'),
  ('FCCc1cnc(N[C@H]2CCCNC2)nc1-c1c[nH]c2ccccc12 [Compound 206]', 'IC50', '20 to 200 nM'),
  ('COc1cnc(N[C@H]2CCCNC2)nc1-c1c[nH]c2ccccc12 [Compound 189]', 'IC50', '200 to 5000 nM'),
  ('N#Cc1cnc(N[C@H]2CCCNC2)nc1-c1c[nH]c2ccccc12 [Compound 157]', 'IC50', '< 20 nM'),
  ('CCS(=O)(=O)c1ccc2c(-c3nc(N[C@H]4CCCNC4)ncc3C(F)(F)F)c[nH]c2c1 [Compound 274]', 'IC50', '< 20 nM'),
  ('FC(F)(F)c1cnc(N[C@H]2CCCNC2)nc1-c1c[nH]c2cc(-c3cccc(Oc4ccccc4)c3)ccc12 [Compound 341]', 'IC50', '200 to 5000 nM'),
  ('CN(C)S(=O)(=O)c1cccc2c(-c3nc(NC4CCCNC4)ncc3C(F)(F)F)c[nH]c12 (stereo not shown) [Compound 371]', 'IC50', '< 20 nM'),
  ('Nc1ncc2cccc(-c3ccc4c(-c5nc(N[C@H]6CCCNC6)ncc5C(F)(F)F)c[nH]c4c3)c2n1 [Compound 322]', 'IC50', '< 20 nM'),
  ('CC(C)N1CCC[C@H](Nc2ncc(Cl)c(-c3c[nH]c4ccccc34)n2)C1 [Compound 148]', 'IC50', '20 to 200 nM'),
  ('CCc1cnc(N[C@H]2CCCNC2)nc1-c1n[nH]c2cc(C#N)ccc12 [Compound 275]', 'IC50', '< 20 nM'),
  ('N#C[C@H]1CCN(C(=O)c2ccc3c(-c4nc(N[C@H]5CCCNC5)ncc4C(F)(F)F)c[nH]c3c2)C1 [Compound 293]', 'IC50', '< 20 nM'),
  ('Cc1c(-c2ccc3c(-c4nc(N[C@H]5CCCNC5)ncc4C(F)(F)F)c[nH]c3c2)cnn1C [Compound 227]', 'IC50', '< 20 nM'),
  ('Fc1cc2[nH]cc(-c3nc(N[C@H]4CCCNC4)ncc3C(F)(F)F)c2cc1F [Compound 184]', 'IC50', '< 20 nM'),
  ('Cc1nc(-c2ccc3c(-c4nc(N[C@H]5CCCNC5)ncc4C(F)(F)F)c[nH]c3c2)nn1C [Compound 245]', 'IC50', '< 20 nM'),
  ('Cn1cc(-c2cccc3c(-c4nc(N[C@H]5CCCNC5)ncc4C(F)(F)F)c[nH]c23)cn1 [Compound 164]', 'IC50', '20 to 200 nM');
